Target: HLA-A*02:01 (peptide-receptive MHC class I molecule, heavy chain with beta-2-microglobulin) (human)
Test: UV-ligand exchange, anti-b2m ELISA; peptide exchange yield grade (>10% = +; >20% = ++; >50 = +++; >75% = ++++)
recorded.metric: peptide exchange yield

ALDPIIHGL (synthetic peptide; source gene PTPRG) [ALDPIIHGL (SEQ ID NO: 11)]	> 75%

# binder ALQNKVVAL (synthetic peptide; source gene NXNL2) [ALQNKVVAL (SEQ ID NO: 13)] ; its peptide exchange yield = 50 to 75%

binder TLLDRVAVI (synthetic peptide; source gene FRG1B) [TLLDRVAVI (SEQ ID NO: 30)] , peptide exchange yield observed: 50 to 75%

Measured peptide exchange yield, GLDEAIRKV (synthetic peptide; source gene GLYATL2) [GLDEAIRKV (SEQ ID NO: 28)] : 50 to 75%

peptide exchange yield reading for KLWEESTAQV (synthetic peptide; source gene C1orf173) [KLWEESTAQV (SEQ ID NO: 17)] : 50 to 75%

For VLLATVTEL (synthetic peptide; source gene SLC35E1) [VLLATVTEL (SEQ ID NO: 37)] the binder record lists peptide exchange yield as 50 to 75%

For reference, reported peptide exchange yield for FLSGYYVTL (synthetic peptide; source gene TMEM101) [FLSGYYVTL (SEQ ID NO: 42)] stands at > 75%

Kindly note the recorded peptide exchange yield for SMTTNLDLKV (synthetic peptide; source gene TMEM202) [SMTTNLDLKV (SEQ ID NO: 33)] , which is 20 to 50%

The reported peptide exchange yield of the binder TLSTVIATV (synthetic peptide; source gene ATN1) [TLSTVIATV (SEQ ID NO: 50)] was > 75%
